Taken from PubChem BioAssay (NCI).

- System: NCI-H226 lung
- assay.summary: NCI tumour cell line growth inhibition, 48 h
# TGI listing for each entry below

Qu. Recall and state the measured TGI for Cc1nn(C(=O)c2ccncc2)c2c1C(c1ccccc1O)SC(N)=N2 (stereo unspecified) .
Ans. > 10 µM

Qu. Recall and state the measured TGI for `COc1ccc(N=C2C(=Nc3ccc(OC)cc3)N(c3ccccc3[N+](=O)[O-])C(=S)N2c2ccc(OC)cc2)cc1` .
Ans. > 100 µM

Qu. Recall and state the measured TGI for `Cc1cc2c(=O)cc(-c3ccc(C(=O)O)cc3)oc2c(C(=O)O)c1C` .
Ans. > 100 µM

Qu. Recall and state the measured TGI for COC1(C)Cc2c(c(C)c(O)c3c2C(=O)C=C(Cl)C3=O)O1 (stereo unspecified) .
Ans. > 100 µM

Qu. Recall and state the measured TGI for `[O-][N+]1=C(c2ccccc2)COc2ccccc21` .
Ans. > 100 µM

Qu. Recall and state the measured TGI for `O=c1[nH]c(C2CCCCC2)nc2cc(Cl)ccc12` .
Ans. > 100 µM

###

# TGI listing for each entry below
- Test system: MCF7 breast
- assay.summary: NCI tumour cell line growth inhibition, 48 h

• Cc1nn(C(=O)c2ccncc2)c2c1C(c1ccccc1O)SC(N)=N2 (stereo unspecified) = > 10 µM

We now examine a further compound.
Qu. Recall and state the measured TGI for `O=C(O)C#Cc1ccc([N+](=O)[O-])cc1` .
Ans. > 100 µM

###

- Tested on: SW-620 colon
- assay.summary: NCI tumour cell line growth inhibition, 48 h
property: TGI

# count of solved cases: 5
- O=C1NCN(c2ccccc2)C12CCN(CCCSc1ccc(F)cc1)CC2: > 100 µM
- CC(C)=CCC/C(C)=C/CC/C(C)=C/CC/C(C=O)=C/CC/C(C)=C\CC/C(C)=C/CC/C(C)=C/CC/C(C)=C/CC1=CC(=O)C=CC1=O: > 100 µM
- Nc1nc(Cl)cc(NCC2(CO)CC(Cc3ccccc3)C2)n1 (centres undefined): > 100 µM
- C[C@H]1[C@H](C)CC[C@]2(C(=O)O)CC[C@]3(C)C(=CC[C@@H]4[C@@]5(C)CC[C@H](OC(=O)/C=C\c6ccc(O)cc6)C(C)(C)[C@@H]5CC[C@]43C)[C@H]12: 33.7 µM
- CCC(C)(C)c1ccc(Oc2cccc(C(=O)O)c2)cc1: > 100 µM

We now examine a further molecule.
Qu. Recall and state the measured TGI for `Clc1ccc(CSCc2ccc(Cl)cc2Cl)c(Cl)c1` .
Ans. > 100 µM

###

- System: CCRF-CEM leukemia
- assay.summary: NCI tumour cell line growth inhibition, 48 h
property: TGI

# count of solved cases: 3
* O=C(CCc1cc(-c2ccco2)n(-c2ccc([N+](=O)[O-])cc2[N+](=O)[O-])n1)Nc1ccccc1 | > 100 µM
* N=C(N)c1ccc(-c2ccc(-c3ccc(C(=N)N)cc3)o2)cc1 | > 100 µM
* O=[N+]([O-])c1ccc(C2N3CCCCC3[C@@H]3c4[nH]c5ccccc5c4CCN23)cc1 (stereo not given in full) | 64.4 µM

Qu. Under CCRF-CEM leukemia: report TGI of `Cc1cc(NC(=O)C(=O)Cc2nc3ccccc3s2)ccc1Cl` .
Ans. > 100 µM

Qu. Under CCRF-CEM leukemia: report TGI of `Cc1ccc2nc(Cl)c(/C=N/N3C(=O)/C(=C/Cc4ccco4)N=C3c3ccccc3)cc2c1` .
Ans. > 100 µM
